The origin of these recorded values is patent US20220402935A1.

Listing: remaining binding at 1 µM of selected compounds
- measurement.target: IRAK-M (Homo sapiens, UniProt Q9Y616)
- Sequence (Q9Y616 whole entry): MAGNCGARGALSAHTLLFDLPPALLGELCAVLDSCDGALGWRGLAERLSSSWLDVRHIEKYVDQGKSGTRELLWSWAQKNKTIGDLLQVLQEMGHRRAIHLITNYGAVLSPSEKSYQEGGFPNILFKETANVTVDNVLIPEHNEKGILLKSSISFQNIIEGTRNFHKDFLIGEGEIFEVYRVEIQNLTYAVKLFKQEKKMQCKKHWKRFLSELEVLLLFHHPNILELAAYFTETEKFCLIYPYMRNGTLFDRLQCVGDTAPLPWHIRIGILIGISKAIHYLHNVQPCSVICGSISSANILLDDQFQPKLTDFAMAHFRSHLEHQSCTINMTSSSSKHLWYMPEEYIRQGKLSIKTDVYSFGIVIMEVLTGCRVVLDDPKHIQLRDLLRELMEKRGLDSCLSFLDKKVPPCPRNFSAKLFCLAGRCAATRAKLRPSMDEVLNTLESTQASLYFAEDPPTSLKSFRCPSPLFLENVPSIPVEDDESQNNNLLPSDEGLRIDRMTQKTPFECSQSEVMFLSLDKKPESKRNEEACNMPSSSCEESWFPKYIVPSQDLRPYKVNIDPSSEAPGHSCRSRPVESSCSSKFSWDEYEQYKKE
- assay.overview: IRAK-M binding inhibitory activity (KINOMEscan active site-dependent competitive assay)
- Set-up: purchased Eurofins Discover X
- setup.conditions: concentration of the test compound 1 μM; first symbol of cell; read-out: IRAK-M binding inhibition activity % Ctrl

{"input.smiles": "NC(=O)c1ccc(Nc2nc(Cl)nc3ccsc23)cc1", "test.readout": "remaining binding at 1 µM", "readout.value": "≥ 75%"}

Exercise: Recorded remaining binding at 1 µM for `COC(=O)c1cc2ncnc(NCC3CC3)c2s1` , please?
Solution: ≥ 75%

Exercise: Can you look up the measured remaining binding at 1 µM of `CN1CCC(Oc2ncnc3cc(-c4cnn(C)c4)sc23)CC1` for me?
Solution: ≥ 75%

Exercise: # lookup: remaining binding at 1 µM of `CN[C@@H](C)C(=O)N[C@H](C(=O)N1CCN(C(=O)c2ccc3c(c2)cc(C)n3CCOCCOCCOc2cc(CN3CCC(Oc4ccnc5ccsc45)CC3)on2)C[C@H]1C)C1CCCCC1`
Solution: 50 to 75%

----------
- measurement.target: IRAK-M (Homo sapiens)
- assay.overview: IRAK-M binding inhibitory activity (KINOMEscan active site-dependent competitive assay)
- Design: purchased Eurofins Discover X
- setup.conditions: second symbol of cell; read-out: IRAK-M binding inhibition IC50 value
Counter-ions that a name gives are not always drawn.
test.readout: IC50

These recorded examples may help you get a feel for the data.
{"compound": "C=CCOc1cc(CN2CCC(Oc3ncnc4ccsc34)CC2)on1 [Ref. example 70]", "measurement.target": "IRAK-M (Homo sapiens)", "readout.value": "100 to 300 nM"}
{"compound": "C=CCOc1cc(CN2CCC(Oc3ccnc4cc(C)sc34)CC2)on1 [Ref. example 72]", "measurement.target": "IRAK-M (Homo sapiens)", "readout.value": "30 to 100 nM"}
{"compound": "C#CCOc1cc(CN2CCC(Oc3ccnc4ccsc34)CC2)on1 [Ref. example 71]", "measurement.target": "IRAK-M (Homo sapiens)", "readout.value": "30 to 100 nM"}
{"compound": "CN[C@@H](C)C(=O)N[C@H](C(=O)N1CCN(C(=O)c2c(C(=O)N(C)CCOCCOCCOc3cc(CN4CCC(Oc5ccnc6ccsc56)CC4)on3)c3cc(F)c(F)cc3n2C)CC1)C1CCCCC1 [Example 1, hydrochloride]", "measurement.target": "IRAK-M (Homo sapiens)", "readout.value": "300 to 1000 nM"}

Exercise: What value of measured IC50 is listed for CN[C@@H](C)C(=O)N[C@H](C(=O)N1CCN(C(=O)c2cc3cc(F)c(F)cc3n2CC(=O)N2CCC[C@H]2COc2cc(CN3CCC(Oc4ccnc5ccsc45)CC3)on2)[C@@H](C)C1)C1CCCCC1 [Example 27] ?
Solution: 300 to 1000 nM

Exercise: Requested read-out: IC50. Entry: C=CCOc1cc(C(C)N2CCC(Oc3ccnc4ccsc34)CC2)on1 (stereo not drawn) [Ref. example 83]
Solution: < 30 nM

Exercise: Report IC50 for CN[C@@H](C)C(=O)N[C@H](C(=O)N1CCN(C(=O)c2c(C(=O)NCCOCCOCCOc3cc(C(C)N4CCC(Oc5ccnc6cc(C)sc56)CC4)on3)c3cc(F)c(F)cc3n2C)CC1)C1CCCCC1 (stereo partly drawn) [Example 9] please.
Solution: 30 to 100 nM

Exercise: Would you kindly share the measured IC50 for CN[C@@H](C)C(=O)N[C@H](C(=O)N1CCN(C(=O)c2cc3cc(F)ccc3n2CC(=O)N2C[C@@H](O)C[C@H]2COc2cc(CN3CCC(Oc4ccnc5ccsc45)CC3)on2)[C@@H](C)C1)C1CCCCC1 [Example 42] ?
Solution: 100 to 300 nM

Exercise: So what does the record say about IC50 for COCCOc1cc(CN2CCC(Oc3ccnc4ccsc34)CC2)on1 [Ref. example 85] ?
Solution: 100 to 300 nM

----------
Parameter remaining binding at 1 µM: see the listing below.
- measurement.target: IRAK-M (Homo sapiens)
- assay.overview: IRAK-M binding inhibitory activity (KINOMEscan active site-dependent competitive assay)
- Design: purchased Eurofins Discover X
- setup.conditions: concentration of the test compound 1 μM; first symbol of cell; read-out: IRAK-M binding inhibition activity % Ctrl
Where a name gives a salt, the structure may show the parent alone.

Use the examples below as a reference point.
{"molecule": "Cc1nn(C)c(C)c1CN1CCC(Oc2ccnc3ccsc23)CC1", "remaining binding at 1 µM": "≥ 75%"}
{"molecule": "CN[C@@H](C)C(=O)N[C@H](C(=O)N1CCN(C(=O)c2c(OCCOCCOCCOc3cc(CN4CCC(Oc5ccnc6ccsc56)CC4)on3)c3cc(F)c(F)cc3n2C)CC1)C1CCCCC1 [Example 21, hydrochloride]", "remaining binding at 1 µM": "25 to 50%"}
{"molecule": "Cc1cc(Nc2ncnc3ccsc23)n(-c2ccccn2)n1", "remaining binding at 1 µM": "25 to 50%"}
{"molecule": "Cc1ccc(S(=O)(=O)N2CCC(Oc3ncnc4ccsc34)CC2)cc1", "remaining binding at 1 µM": "25 to 50%"}
{"molecule": "Cc1nn(C)cc1CN1CCC(Oc2ccnc3ccsc23)CC1", "remaining binding at 1 µM": "50 to 75%"}

Exercise: Request - read-out remaining binding at 1 µM | tested on IRAK-M (Homo sapiens) | molecule `C[C@@H]1CN(CC(=O)N2CCN(C(=O)c3cc4cc(F)c(F)cc4n3C)C[C@H]2C)[C@@H](COCCOCCOc2cc(CN3CCC(Oc4ccnc5ccsc45)CC3)on2)CN1`
Solution: 25 to 50%

Exercise: Given the entry `Cn1cc(CN2CCC(Oc3ccnc4ccsc34)CC2)cn1` , what remaining binding at 1 µM was observed with IRAK-M (Homo sapiens)?
Solution: ≥ 75%

Exercise: Give recorded remaining binding at 1 µM with IRAK-M (Homo sapiens) for the following molecule: C=CCOc1cc(C(C)N2CCC(Oc3ccnc4cc(C)sc34)CC2)on1 (racemic) [Ref. example 7]
Solution: < 25%

Exercise: Record `O=S(=O)(Cc1ccccc1)N1CCC(Oc2ncnc3ccsc23)CC1` : what is its remaining binding at 1 µM with IRAK-M (Homo sapiens)?
Solution: 25 to 50%

Exercise: Query remaining binding at 1 µM on IRAK-M (Homo sapiens) for `CN[C@@H](C)C(=O)N[C@H](C(=O)N1CCN(C(=O)c2c(C(=O)N(C)CCOCCOCCOc3cc(CN4CCC(Oc5ccnc6ccsc56)CC4)on3)c3cc(F)ccc3n2C)CC1)C(C)(C)O`
Solution: 25 to 50%

Exercise: // fetch IRAK-M (Homo sapiens) remaining binding at 1 µM for `CN[C@@H](C)C(=O)N[C@H](C(=O)N1CCN(C(=O)c2cc3cc(F)c(F)cc3n2CC(=O)N2CCOC[C@H]2COc2cc(CN3CCC(Oc4ccnc5ccsc45)CC3)on2)CC1)C1CCCCC1`
Solution: 25 to 50%

Exercise: Give the reported remaining binding at 1 µM for `O=S(=O)(c1cccc(Cl)c1)N1CCC(Oc2ncnc3ccsc23)CC1` (system: IRAK-M (Homo sapiens)).
Solution: 25 to 50%

Exercise: Find the measured remaining binding at 1 µM: item `CC(C)(C)OC(=O)N1CCC(CS(=O)(=O)N2CCC(Oc3ncnc4ccsc34)CC2)CC1` , target or system IRAK-M (Homo sapiens).
Solution: 50 to 75%

Exercise: Provide value of remaining binding at 1 µM for this record tested with IRAK-M (Homo sapiens): `CC(C)CS(=O)(=O)N1CCC(Oc2ncnc3ccsc23)CC1`
Solution: 25 to 50%

----------
Entries and their pIC50 values follow.
- measurement.target: IRAK-M (Homo sapiens)
- assay.overview: IRAK-M binding inhibitory activity (KINOMEscan active site-dependent competitive assay)
- setup.conditions: second symbol of cell; read-out: IRAK-M binding inhibition IC50 value
pIC50: −log10 of the molar value. Structures can show the parent of a compound that is named as a salt.

Reference set (4 entries):
{"compound": "C[C@@H]1CN(CC(=O)N2CCN(C(=O)c3cc4cc(F)c(F)cc4n3C)C[C@H]2C)[C@@H](COCCOCCOCCOc2cc(CN3CCC(Oc4ccnc5ccsc45)CC3)on2)CN1 [Example 17, hydrochloride]", "test.readout": "pIC50", "readout.value": "6.00 to 6.52"}
{"compound": "CN[C@@H](C)C(=O)N[C@H](C(=O)N1CCN(C(=O)c2c(C(=O)N(C)CCOCCOCCOc3cc(CN4CCC(Oc5ccnc6ccsc56)CC4)on3)c3cc(F)ccc3n2C)CC1)C1CCCCC1", "test.readout": "pIC50", "readout.value": "6.52 to 7.00"}
{"compound": "C=CCOc1cc(C(C)N2CCC(Oc3ccnc4ccsc34)CC2)on1 (single isomer, unassigned) [Ref. example 5]", "test.readout": "pIC50", "readout.value": "7.00 to 7.52"}
{"compound": "C=CCOc1cc(C(C)N2CCC(Oc3ccnc4ccsc34)CC2)on1 (single isomer, unassigned) [Ref. example 6]", "test.readout": "pIC50", "readout.value": "6.52 to 7.00"}

Exercise: # get_value(readout='pIC50', item= `C[C@@H]1CN(CC(=O)N2CCN(C(=O)c3cc4cc(F)c(F)cc4n3C)C[C@H]2C)[C@@H](COCCOCCOCCOCCOc2cc(CN3CCC(Oc4ccnc5ccsc45)CC3)on2)CN1` )
Solution: 6.00 to 6.52
